Let's look at some compounds and their measured SAGPY (tuber) herbicidal activity, visual percentage grading.
# Tested on: SAGPY (tuber)
# procedure summary: Assay for herbicidal activity, paddy pots: SAGPY
# Type: in vivo, Sagittaria pygmaea MTQ
# measurement parameters: 4.000 kg/ha; three weeks after application; 0 untreated control, 100 complete kill
quantity measured: SAGPY (tuber) herbicidal activity, visual percentage grading

> print(dat)
                                    compound  reported.measurement
 1  CC1(COCc2c(F)cccc2F)CC(c2ccc(Br)s2)=NO1 (stereo not drawn) [EXAMPLE 11]                   50%
 2  Cc1ccsc1C1=NOC(C)(COCc2ccccc2)C1 (stereo not drawn) [EXAMPLE 5]                   70%
 3  CC1(COCc2c(F)cccc2F)CC(c2ccc([N+](=O)[O-])s2)=NO1 (stereo not drawn) [EXAMPLE 23]                    0%
 4  COc1ccsc1C1=NOC(C)(COCc2c(F)cccc2F)C1 (stereo not drawn) [EXAMPLE 21]                    0%
 5  Cc1ccsc1C1=NOC(C)(COCc2ccccc2F)C1 (stereo not drawn) [EXAMPLE 6]                   30%
 6  CC1(COCc2cccc(F)c2)CC(c2sccc2Br)=NO1 (stereo not drawn) [EXAMPLE 18]                   20%
 7  Cc1ccsc1C1=NOC(C)(COCc2c(F)cccc2F)C1 (stereo not drawn) [EXAMPLE 8]                   80%
 8  CC1(COCc2c(F)cccc2F)CC(c2cccs2)=NO1 (stereo not drawn) [Compound A, reference compound]                  100%
 9  Cc1ccc(C2=NOC(C)(COCc3cccc(F)c3)C2)s1 (stereo not drawn) [EXAMPLE 3]                   40%
10  CC1(COCc2c(F)cccc2F)CC(c2sccc2Br)=NO1 (stereo not drawn) [EXAMPLE 19]                   30%
11  Cc1cc(C)c(C2=NOC(C)(COCc3ccccc3F)C2)s1 (stereo not drawn) [EXAMPLE 13]                   30%
12  Cc1cc(C)c(C2=NOC(C)(COCc3c(F)cccc3F)C2)s1 (stereo not drawn) [EXAMPLE 15]                   70%

###

# System: CYPSE (tuber)
# procedure summary: Assay for herbicidal activity, paddy pots: CYPSE
# Format: in vivo, Cyperus serotinus ROTTB
# measurement parameters: 1.000 kg/ha; three weeks after application; 0 untreated control, 100 complete kill
# From the text: To evaluate herbicidal activity against the paddy weeds in the paddy rice (ORYSA: Oryza sativa L.), the herbicidal activity of the compounds of the invention was compared to that of the compound No.109 (compound A) disclosed in U.S. Pat. […]
Let's look at some compounds and their measured CYPSE (tuber) herbicidal activity, visual percentage grading.
quantity measured: CYPSE (tuber) herbicidal activity, visual percentage grading (%)

> print(dat)
                                    compound  reported.measurement
 1  COc1ccsc1C1=NOC(C)(COCc2c(F)cccc2F)C1 (stereo not drawn) [EXAMPLE 21]                    80
 2  Cc1ccsc1C1=NOC(C)(COCc2ccccc2F)C1 (stereo not drawn) [EXAMPLE 6]                   100
 3  Cc1ccsc1C1=NOC(C)(COCc2ccccc2)C1 (stereo not drawn) [EXAMPLE 5]                   100
 4  Cc1ccsc1C1=NOC(C)(COCc2c(F)cccc2F)C1 (stereo not drawn) [EXAMPLE 8]                   100
 5  Cc1cc(C)c(C2=NOC(C)(COCc3c(F)cccc3F)C2)s1 (stereo not drawn) [EXAMPLE 15]                   100
 6  CC1(COCc2c(F)cccc2F)CC(c2ccc([N+](=O)[O-])s2)=NO1 (stereo not drawn) [EXAMPLE 23]                    80
 7  Cc1cc(C)c(C2=NOC(C)(COCc3ccccc3F)C2)s1 (stereo not drawn) [EXAMPLE 13]                   100
 8  CC1(COCc2cccc(F)c2)CC(c2sccc2Br)=NO1 (stereo not drawn) [EXAMPLE 18]                   100
 9  CC1(COCc2c(F)cccc2F)CC(c2ccc(Br)s2)=NO1 (stereo not drawn) [EXAMPLE 11]                   100
10  CC1(COCc2c(F)cccc2F)CC(c2sccc2Br)=NO1 (stereo not drawn) [EXAMPLE 19]                   100
11  CC1(COCc2c(F)cccc2F)CC(c2cccs2)=NO1 (stereo not drawn) [Compound A, reference compound]                   100
12  Cc1ccc(C2=NOC(C)(COCc3cccc(F)c3)C2)s1 (stereo not drawn) [EXAMPLE 3]                   100
